MST listing for selected compounds.
Test system: Trypanosoma brucei rhodesiense
ASSAY_NAME: Antitrypanosomal activity against Trypanosoma rhodesiense infected in mouse assessed as increase in survival time by 30 days at 2.5 mg/kg relative to control
Type: functional
// return numeric value only (unit: days, not printed)

compound=Cn1c(-c2ccc([C+](N)N)cc2)ccc1-c1ccc([C+](N)N)cc1.[Cl-].[Cl-] unit_label=days reported_measurement=2
compound="N=C(N)c1ccc(/C=C/c2ccc(C(=N)N)cc2O)cc1 [HYDROXYSTILBAMIDINE]" unit_label=days reported_measurement=5
compound=N=C(N)c1ccc(OCCCCCOc2ccc(C(=N)N)cc2)cc1 unit_label=days reported_measurement=4
compound=Cl.Cl.N=C(N)c1ccc(-c2ccc(-c3ccc(C(=N)N)cc3)s2)cc1 unit_label=days reported_measurement=3

The observed MST for N=C(N)c1ccc(/C=C/c2ccc(C(=N)N)cc2)cc1 when tested with Trypanosoma brucei rhodesiense stands at 5

The observed MST for N=C(N)c1ccc(-c2ccc(-c3ccc(C(=N)N)cc3)o2)cc1 when tested with Trypanosoma brucei rhodesiense stands at 4
